Data provenance: ChEMBL document CHEMBL3988442

Collected Percent Effect values appear next to each entry.
molecular target: Tyrosyl-tRNA synthetase, putative (Trypanosoma cruzi (strain CL Brener)) (UniProt Q4DSP6); test: Trypanosoma cruzi tyrosyl tRNA synthetase (TcYRS) SOP; type: functional; design: scale not given: direction of the effect not stated beside the values; details: 30 µM
Sequence (Q4DSP6 as listed by the source): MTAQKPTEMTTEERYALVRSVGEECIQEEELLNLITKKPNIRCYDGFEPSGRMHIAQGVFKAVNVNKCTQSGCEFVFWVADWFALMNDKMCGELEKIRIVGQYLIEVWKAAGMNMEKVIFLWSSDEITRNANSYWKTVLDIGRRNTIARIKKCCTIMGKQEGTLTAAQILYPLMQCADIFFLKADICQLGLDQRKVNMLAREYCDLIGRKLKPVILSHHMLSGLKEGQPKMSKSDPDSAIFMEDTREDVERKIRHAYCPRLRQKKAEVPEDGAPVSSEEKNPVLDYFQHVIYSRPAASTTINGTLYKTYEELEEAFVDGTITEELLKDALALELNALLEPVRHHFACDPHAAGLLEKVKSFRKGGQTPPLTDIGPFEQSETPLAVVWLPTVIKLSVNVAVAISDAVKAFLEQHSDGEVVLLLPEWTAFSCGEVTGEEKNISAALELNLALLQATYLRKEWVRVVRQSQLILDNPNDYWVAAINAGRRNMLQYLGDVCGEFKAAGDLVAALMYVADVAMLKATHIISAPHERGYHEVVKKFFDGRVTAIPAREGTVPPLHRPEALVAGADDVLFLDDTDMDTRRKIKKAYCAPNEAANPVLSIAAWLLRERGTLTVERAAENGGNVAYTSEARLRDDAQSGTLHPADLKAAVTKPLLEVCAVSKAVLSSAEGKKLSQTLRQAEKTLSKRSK
measured_endpoint: Percent Effect (%)

molecule: CCc1nc(CC(=O)N2CCN(c3cnccn3)CC2)cs1
measured_endpoint: Percent Effect
observed: 17.7

molecule: O=C(CO)N1C[C@H]2CC[C@@H]1CN(C1Cc3ccccc3C1)C2
measured_endpoint: Percent Effect
observed: 8.64

molecule: CSCC(=O)N1CCCN(c2ccccc2C)CC1
measured_endpoint: Percent Effect
observed: 6.17

molecule: COc1ccc(COCC(O)CNC(=O)c2cc(C)cc(C)c2)cc1 (configuration not stated)
measured_endpoint: Percent Effect
observed: 17.7

molecule: N#Cc1cn(C2CC2)c(=O)n(CC(O)c2ccccc2F)c1=O (configuration not stated)
measured_endpoint: Percent Effect
observed: 19.5

molecule: O=C(c1ccc[nH]1)N1C[C@H](OCc2cccnc2)[C@H]2COC[C@H]21
measured_endpoint: Percent Effect
observed: -3.66

molecule: CCOc1ncccc1NC(=O)NCC(O)c1ccccc1OC (configuration not stated)
measured_endpoint: Percent Effect
observed: 21.5

molecule: CCC(=O)N1CCC2(COCc3c(C)nc(N(C)C)nc32)C1 (configuration not stated)
measured_endpoint: Percent Effect
observed: 3.66

molecule: Cc1n[nH]c(C)c1NC(=O)CN1CCOC(Cn2cccn2)C1 (configuration not stated)
measured_endpoint: Percent Effect
observed: 9.41

molecule: Cc1cnn(CC2CCCCN2CC(=O)Nc2c(C)n[nH]c2C)c1 (configuration not stated)
measured_endpoint: Percent Effect
observed: 10.1

molecule: CC(C)c1cc(NCC(C)N2CCCC2)n2nccc2n1 (configuration not stated)
measured_endpoint: Percent Effect
observed: 17.1

molecule: Cc1ccsc1CN(Cc1ccccn1)CC(C)C
measured_endpoint: Percent Effect
observed: 7.69
